# MEASURED ON: Solute carrier family 15 member 2 (Homo sapiens, UniProt Q16348)
# Sequence (Q16348 whole entry): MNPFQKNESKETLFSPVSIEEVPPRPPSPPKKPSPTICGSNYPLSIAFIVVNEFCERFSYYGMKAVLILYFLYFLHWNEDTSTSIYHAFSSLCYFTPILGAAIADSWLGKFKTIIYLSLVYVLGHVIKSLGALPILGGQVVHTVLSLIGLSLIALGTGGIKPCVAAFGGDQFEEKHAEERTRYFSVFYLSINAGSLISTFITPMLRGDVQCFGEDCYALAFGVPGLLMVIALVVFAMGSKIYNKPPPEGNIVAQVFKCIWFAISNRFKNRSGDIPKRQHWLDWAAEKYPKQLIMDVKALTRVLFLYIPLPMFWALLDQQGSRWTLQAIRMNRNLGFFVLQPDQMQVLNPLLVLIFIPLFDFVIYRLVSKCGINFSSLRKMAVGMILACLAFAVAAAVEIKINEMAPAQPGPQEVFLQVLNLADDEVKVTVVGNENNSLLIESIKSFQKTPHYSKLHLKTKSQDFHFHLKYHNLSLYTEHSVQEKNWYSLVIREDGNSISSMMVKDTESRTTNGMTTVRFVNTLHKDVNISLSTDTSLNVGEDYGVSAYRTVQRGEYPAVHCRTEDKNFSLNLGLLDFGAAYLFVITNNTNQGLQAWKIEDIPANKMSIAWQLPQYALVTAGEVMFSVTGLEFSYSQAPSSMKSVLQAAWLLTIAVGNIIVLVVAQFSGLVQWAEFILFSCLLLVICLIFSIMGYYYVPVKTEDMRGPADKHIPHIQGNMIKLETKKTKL
# EXPERIMENT: Binding affinity to human PepT2 in SKTP cells
Where a SMILES comes first, the peptide text is derived from it.
READOUT: pKi
Just so you know, pKi here is -log10 of the concentration in molar units; reply with that number alone.

See these solved cases before continuing.
N[C@@H](CC(=O)O)C(=O)N[C@@H](CC(=O)O)C(=O)O (H-Asp-Asp-OH) : 3.82
C=CC1=C(C(=O)O)N2C(=O)[C@@H](NC(=O)/C(=N\OCC(=O)O)c3csc(N)n3)[C@H]2SC1 : 2.59
NCC(=O)N[C@@H](Cc1c[nH]cn1)C(=O)O (H-Gly-His-OH) : 4.41
N[C@@H](Cc1c[nH]c2ccccc12)C(=O)N[C@@H](Cc1c[nH]c2ccccc12)C(=O)N[C@@H](Cc1c[nH]c2ccccc12)C(=O)O (H-Trp-Trp-Trp-OH) : 6.52
O=C(O)C[C@H](NC(=O)[C@@H]1CCCN1)C(=O)O (H-Pro-Asp-OH) : 2.68
C[C@H](N)C(=O)N[C@H](C(=O)N[C@@H](C)C(=O)N[C@@H](C)C(=O)O)[C@@H](C)O (H-ATAA-OH) : 3.26

Now for a further molecule.
Sure, the documented pKi for C[C@H](N)C(=O)N[C@@H](CO)C(=O)O (H-Ala-Ser-OH) is 5.22
